System: Candida albicans
Assay: Antifungal activity against itraconazole/fluconazole susceptible Candida albicans ATCC MYA-2310 assessed as fungal growth inhibition by double dilution method
Type: functional
attribute_measured: MIC (µg/mL)

molecule=O=C(NNc1ccc(F)cc1)c1nc(F)ccc1F target_or_system="Candida albicans" unit_descriptor=µg/mL reported_result=0.98
molecule="C[C@@H]1[C@H](O)[C@@H](C)/C=C/C=C/C=C/C=C/C=C/C=C/C=C/[C@H](O[C@@H]2O[C@H](C)[C@@H](O)[C@H](N)[C@@H]2O)C[C@@H]2O[C@](O)(C[C@@H](O)C[C@@H](O)[C@H](O)CC[C@@H](O)C[C@@H](O)CC(=O)O[C@H]1C)C[C@H](O)[C@H]2C(=O)O [AMPHOTERICIN B]" target_or_system="Candida albicans" unit_descriptor=µg/mL reported_result=0.98
molecule=COc1cccc(NNC(=O)c2ccccn2)c1 target_or_system="Candida albicans" unit_descriptor=µg/mL reported_result=1.95
molecule=O=C(NNc1ccc(F)cc1)c1ncc(F)cc1F target_or_system="Candida albicans" unit_descriptor=µg/mL reported_result=3.9
molecule=COc1ccc(NNC(=O)c2ccccn2)cc1 target_or_system="Candida albicans" unit_descriptor=µg/mL reported_result=0.98
molecule=O=C(NNc1cccc(F)c1)c1ncc(F)cc1F target_or_system="Candida albicans" unit_descriptor=µg/mL reported_result=1.95
molecule=O=C(NNc1cccc(F)c1)c1ccccn1 target_or_system="Candida albicans" unit_descriptor=µg/mL reported_result=1.95
molecule=O=C(NNc1ccc(Cl)cc1)c1ccccn1 target_or_system="Candida albicans" unit_descriptor=µg/mL reported_result=0.98
molecule=COc1cccc(NNC(=O)c2cccc(Br)n2)c1 target_or_system="Candida albicans" unit_descriptor=µg/mL reported_result=7.8
molecule=O=C(NNc1ccc(F)cc1)c1ccc(F)cc1F target_or_system="Candida albicans" unit_descriptor=µg/mL reported_result=3.9
molecule=O=C(NNc1ccc(F)cc1F)c1ccccn1 target_or_system="Candida albicans" unit_descriptor=µg/mL reported_result=31.3
molecule=COc1ccc(NNC(=O)c2ccc(F)cn2)cc1 target_or_system="Candida albicans" unit_descriptor=µg/mL reported_result=0.98
molecule=O=C(NNc1cc(F)cc(F)c1)c1ccccn1 target_or_system="Candida albicans" unit_descriptor=µg/mL reported_result=0.98
molecule=COc1cccc(NNC(=O)c2ccc(F)cn2)c1 target_or_system="Candida albicans" unit_descriptor=µg/mL reported_result=1.95
molecule=COc1ccc(NNC(=O)c2ccc(F)cc2F)cc1 target_or_system="Candida albicans" unit_descriptor=µg/mL reported_result=1.95
molecule=O=C(NNc1ccc(F)cc1)c1cccc(F)n1 target_or_system="Candida albicans" unit_descriptor=µg/mL reported_result=3.9
molecule=COc1ccc(NNC(=O)c2cnccn2)cc1 target_or_system="Candida albicans" unit_descriptor=µg/mL reported_result=1.95
molecule=COc1ccc(NNC(=O)c2nc(F)ccc2F)cc1 target_or_system="Candida albicans" unit_descriptor=µg/mL reported_result=1.95
molecule=COc1cccc(NNC(=O)c2cnccn2)c1 target_or_system="Candida albicans" unit_descriptor=µg/mL reported_result=1.95
molecule=O=C(NNc1ccc(F)cc1F)c1cnccn1 target_or_system="Candida albicans" unit_descriptor=µg/mL reported_result=3.9
molecule=O=C(NNc1cccc(F)c1)c1nc(F)ccc1F target_or_system="Candida albicans" unit_descriptor=µg/mL reported_result=1.95
molecule=O=C(NNc1cc(F)ccc1F)c1ccccn1 target_or_system="Candida albicans" unit_descriptor=µg/mL reported_result=1.95
molecule=O=C(NNc1cccc(F)c1)c1ccc(F)cc1F target_or_system="Candida albicans" unit_descriptor=µg/mL reported_result=3.9
molecule=COc1ccc(NNC(=O)c2cccc(F)n2)cc1 target_or_system="Candida albicans" unit_descriptor=µg/mL reported_result=0.98
molecule=O=C(NNc1cccc(F)c1)c1cnccn1 target_or_system="Candida albicans" unit_descriptor=µg/mL reported_result=7.8
molecule=O=C(NNc1cccc(Cl)c1)c1cnccn1 target_or_system="Candida albicans" unit_descriptor=µg/mL reported_result=7.8
molecule=O=C(NNc1cc(Cl)cc(Cl)c1)c1ccccn1 target_or_system="Candida albicans" unit_descriptor=µg/mL reported_result=1.95
molecule=O=C(NNc1cccc(F)c1)c1ccc(F)cn1 target_or_system="Candida albicans" unit_descriptor=µg/mL reported_result=3.9

Numbers sourced from ChEMBL document CHEMBL5329156.
